Protocol Details: Single ascending dose IV study in healthy adult subjects (safety, PK)
Type: in vivo, human
Setup Conditions: human, plasma, intravenous; 50-400 mg; read-out: Volume of distribution (Vz and Vss)
*1 amine or outer side, *2 acyl side, *3 side chain or, on linkers, in order; H or OH if unused. Where a SMILES comes first, the peptide text is derived from it. Bridges are numbered along the chain shown (N, C = ends). [ ]: non-standard residue; d: D form. The star is where a group is joined. Orn(4R-OH,5R-OCH2CH2NMe3+) = C[N+](C)(C)CCO[C@@H](N[*:3])[C@H](O)C[C@H](N[*:1])C(=O)[*:2]; pTerphenylCO(4''-OnC5H11) = CCCCCOc1ccc(-c2ccc(-c3ccc(C(=O)*)cc3)cc2)cc1; hTyr(3S-OH,4S-OH) = N[C@H](C(=O)O)[C@H](O)[C@@H](O)c1ccc(O)cc1; Pro(3S-OH,4S-Me) = C[C@H]1CN[C@H](C(=O)O)[C@H]1O; Hyp = O=C(O)[C@@H]1C[C@@H](O)CN1
Quantity: Vd

Incoming: Quick one: Vd for CCCCCOc1ccc(-c2ccc(-c3ccc(C(=O)N[C@H]4C[C@@H](O)[C@@H](OCC[N+](C)(C)C)NC(=O)[C@@H]5[C@@H](O)[C@@H](C)CN5C(=O)[C@H]([C@@H](C)O)NC(=O)[C@H]([C@H](O)[C@@H](O)c5ccc(O)cc5)NC(=O)[C@@H]5C[C@@H](O)CN5C(=O)[C@H]([C@@H](C)O)NC4=O)cc3)cc2)cc1 [CD101] ({pTerphenylCO(4''-OnC5H11)}-[Orn(4R-OH,5R-OCH2CH2NMe3+)]T[Hyp][hTyr(3S-OH,4S-OH)]T[Pro(3S-OH,4S-Me)]; lactam 1-C) ?
Outgoing: 33 to 48 L

* * *

Protocol Details: Single ascending dose IV study in healthy adult subjects (safety, PK)
Type: in vivo, human
Setup Conditions: human, plasma; 50 mg 1-hour IV infusion; read-out: AUC0-168
Method: In a first study, CD101 was administered by IV injection to healthy adult subjects. […] Dose levels of CD101 assessed follow an ascending single-dose regimen (50, 100, 200, or 400 mg). Pharmacokinetics were first determined by analyzing plasma and urine samples for concentration of CD101 obtained from subjects who received CD101 in each cohort at various time points after administration of the single dose of the study drug.
*1 amine or outer side, *2 acyl side, *3 side chain or, on linkers, in order; H or OH if unused. Where a SMILES comes first, the peptide text is derived from it. Bridges are numbered along the chain shown (N, C = ends). [ ]: non-standard residue; d: D form. The star is where a group is joined. Orn(4R-OH,5R-OCH2CH2NMe3+) = C[N+](C)(C)CCO[C@@H](N[*:3])[C@H](O)C[C@H](N[*:1])C(=O)[*:2]; pTerphenylCO(4''-OnC5H11) = CCCCCOc1ccc(-c2ccc(-c3ccc(C(=O)*)cc3)cc2)cc1; hTyr(3S-OH,4S-OH) = N[C@H](C(=O)O)[C@H](O)[C@@H](O)c1ccc(O)cc1; Pro(3S-OH,4S-Me) = C[C@H]1CN[C@H](C(=O)O)[C@H]1O; Hyp = O=C(O)[C@@H]1C[C@@H](O)CN1
Quantity: AUC(0-t) (µg·h/mL)
Give just the numeric value; µg·h/mL need not be written.

Incoming: Given the compound CCCCCOc1ccc(-c2ccc(-c3ccc(C(=O)N[C@H]4C[C@@H](O)[C@@H](OCC[N+](C)(C)C)NC(=O)[C@@H]5[C@@H](O)[C@@H](C)CN5C(=O)[C@H]([C@@H](C)O)NC(=O)[C@H]([C@H](O)[C@@H](O)c5ccc(O)cc5)NC(=O)[C@@H]5C[C@@H](O)CN5C(=O)[C@H]([C@@H](C)O)NC4=O)cc3)cc2)cc1 [CD101] ({pTerphenylCO(4''-OnC5H11)}-[Orn(4R-OH,5R-OCH2CH2NMe3+)]T[Hyp][hTyr(3S-OH,4S-OH)]T[Pro(3S-OH,4S-Me)]; lactam 1-C) , what is its reported AUC(0-t)?
Outgoing: 145

* * *

Protocol Details: Single ascending dose IV study in healthy adult subjects (safety, PK)
Type: in vivo, human
Setup Conditions: human, plasma; 50 mg 1-hour IV infusion; read-out: Cmax
*1 amine or outer side, *2 acyl side, *3 side chain or, on linkers, in order; H or OH if unused. Where a SMILES comes first, the peptide text is derived from it. Bridges are numbered along the chain shown (N, C = ends). [ ]: non-standard residue; d: D form. The star is where a group is joined. Orn(4R-OH,5R-OCH2CH2NMe3+) = C[N+](C)(C)CCO[C@@H](N[*:3])[C@H](O)C[C@H](N[*:1])C(=O)[*:2]; pTerphenylCO(4''-OnC5H11) = CCCCCOc1ccc(-c2ccc(-c3ccc(C(=O)*)cc3)cc2)cc1; hTyr(3S-OH,4S-OH) = N[C@H](C(=O)O)[C@H](O)[C@@H](O)c1ccc(O)cc1; Pro(3S-OH,4S-Me) = C[C@H]1CN[C@H](C(=O)O)[C@H]1O; Hyp = O=C(O)[C@@H]1C[C@@H](O)CN1
Quantity: Cmax (ng/mL)
Reply numerically in ng/mL, unit not repeated.

Incoming: Look up Cmax: CCCCCOc1ccc(-c2ccc(-c3ccc(C(=O)N[C@H]4C[C@@H](O)[C@@H](OCC[N+](C)(C)C)NC(=O)[C@@H]5[C@@H](O)[C@@H](C)CN5C(=O)[C@H]([C@@H](C)O)NC(=O)[C@H]([C@H](O)[C@@H](O)c5ccc(O)cc5)NC(=O)[C@@H]5C[C@@H](O)CN5C(=O)[C@H]([C@@H](C)O)NC4=O)cc3)cc2)cc1 [CD101] ({pTerphenylCO(4''-OnC5H11)}-[Orn(4R-OH,5R-OCH2CH2NMe3+)]T[Hyp][hTyr(3S-OH,4S-OH)]T[Pro(3S-OH,4S-Me)]; lactam 1-C)
Outgoing: 2760

* * *

Protocol Details: Single ascending dose IV study in healthy adult subjects (safety, PK)
Type: in vivo, human
Setup Conditions: human, plasma; 100 mg 1-hour IV infusion; read-out: Cmax
*1 amine or outer side, *2 acyl side, *3 side chain or, on linkers, in order; H or OH if unused. Where a SMILES comes first, the peptide text is derived from it. Bridges are numbered along the chain shown (N, C = ends). [ ]: non-standard residue; d: D form. The star is where a group is joined. Orn(4R-OH,5R-OCH2CH2NMe3+) = C[N+](C)(C)CCO[C@@H](N[*:3])[C@H](O)C[C@H](N[*:1])C(=O)[*:2]; pTerphenylCO(4''-OnC5H11) = CCCCCOc1ccc(-c2ccc(-c3ccc(C(=O)*)cc3)cc2)cc1; hTyr(3S-OH,4S-OH) = N[C@H](C(=O)O)[C@H](O)[C@@H](O)c1ccc(O)cc1; Pro(3S-OH,4S-Me) = C[C@H]1CN[C@H](C(=O)O)[C@H]1O; Hyp = O=C(O)[C@@H]1C[C@@H](O)CN1
Quantity: Cmax

Incoming: Name the reported Cmax value associated with the compound CCCCCOc1ccc(-c2ccc(-c3ccc(C(=O)N[C@H]4C[C@@H](O)[C@@H](OCC[N+](C)(C)C)NC(=O)[C@@H]5[C@@H](O)[C@@H](C)CN5C(=O)[C@H]([C@@H](C)O)NC(=O)[C@H]([C@H](O)[C@@H](O)c5ccc(O)cc5)NC(=O)[C@@H]5C[C@@H](O)CN5C(=O)[C@H]([C@@H](C)O)NC4=O)cc3)cc2)cc1 [CD101] ({pTerphenylCO(4''-OnC5H11)}-[Orn(4R-OH,5R-OCH2CH2NMe3+)]T[Hyp][hTyr(3S-OH,4S-OH)]T[Pro(3S-OH,4S-Me)]; lactam 1-C)
Outgoing: 4840 ng/mL

* * *

Protocol Details: Single ascending dose IV study in healthy adult subjects (safety, PK)
Format: in vivo, human
Setup Conditions: human, plasma, iv, 400 mg, 400 mg 1-hour IV infusion; read-out: t1/2 (converted)
*1 amine or outer side, *2 acyl side, *3 side chain or, on linkers, in order; H or OH if unused. Where a SMILES comes first, the peptide text is derived from it. Bridges are numbered along the chain shown (N, C = ends). [ ]: non-standard residue; d: D form. The star is where a group is joined. Orn(4R-OH,5R-OCH2CH2NMe3+) = C[N+](C)(C)CCO[C@@H](N[*:3])[C@H](O)C[C@H](N[*:1])C(=O)[*:2]; pTerphenylCO(4''-OnC5H11) = CCCCCOc1ccc(-c2ccc(-c3ccc(C(=O)*)cc3)cc2)cc1; hTyr(3S-OH,4S-OH) = N[C@H](C(=O)O)[C@H](O)[C@@H](O)c1ccc(O)cc1; Pro(3S-OH,4S-Me) = C[C@H]1CN[C@H](C(=O)O)[C@H]1O; Hyp = O=C(O)[C@@H]1C[C@@H](O)CN1
Quantity: half-life
# output: number + unit

Incoming: // returns reported half-life for input CCCCCOc1ccc(-c2ccc(-c3ccc(C(=O)N[C@H]4C[C@@H](O)[C@@H](OCC[N+](C)(C)C)NC(=O)[C@@H]5[C@@H](O)[C@@H](C)CN5C(=O)[C@H]([C@@H](C)O)NC(=O)[C@H]([C@H](O)[C@@H](O)c5ccc(O)cc5)NC(=O)[C@@H]5C[C@@H](O)CN5C(=O)[C@H]([C@@H](C)O)NC4=O)cc3)cc2)cc1 [CD101] ({pTerphenylCO(4''-OnC5H11)}-[Orn(4R-OH,5R-OCH2CH2NMe3+)]T[Hyp][hTyr(3S-OH,4S-OH)]T[Pro(3S-OH,4S-Me)]; lactam 1-C)
Outgoing: 84 h
